Measured EC50 values are reported for all entries that follow.
- TARGET ENTITY: human GPR40 receptor (Homo sapiens)
- Sequence (O14842 whole entry): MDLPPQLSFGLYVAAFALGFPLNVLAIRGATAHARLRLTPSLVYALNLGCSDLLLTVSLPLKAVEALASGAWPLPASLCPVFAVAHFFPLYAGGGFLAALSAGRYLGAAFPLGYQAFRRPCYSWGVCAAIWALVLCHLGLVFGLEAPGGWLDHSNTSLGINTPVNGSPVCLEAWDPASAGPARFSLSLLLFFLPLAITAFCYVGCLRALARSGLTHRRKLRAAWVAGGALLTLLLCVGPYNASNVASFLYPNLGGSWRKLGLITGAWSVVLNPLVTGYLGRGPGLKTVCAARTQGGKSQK
- PROTOCOL DESCRIPTION: IP1 accumulation measurements using the IPOne assay system (1321N1 cells stably expressing human GPR40 receptor)
- CONDITION: 1321N1 cells expressing human GPR40, 1 h stimulation at 37° C.
The response must be a number in nM with no trailing unit.

Reference set (2 entries):
Cc1cc(-c2nnn[nH]2)cc(C)c1-c1ccc(F)c2c1CC[C@H]2Nc1ccc([C@H]2C[C@@H]2C(=O)O)cn1 [Example 25]
177
Cc1cc(OCC2(O)CCOCC2)cc(C)c1-c1ccc(F)c2c1CC[C@H]2Nc1ccc([C@H]2C[C@@H]2C(=O)O)cn1 [Example 63]
20

Now look at this entry.
Answer with reported EC50 of Cc1cc(C#N)cc(C)c1-c1ccc(F)c2c1CC[C@H]2Nc1ccc([C@H]2C[C@@H]2C(=O)O)cn1 [Example 20]
18
